The reported numbers originate from paper PMC8427951.

# Assay Name: Pharmacokinetic study, plasma (IV, PO, IP)
# Format: in vivo, C57BL/6J mice
# Test Context: male, C57BL/6J, mouse, intraperitoneal; PO and IP administration; plasma
Value Kind: Tmax

q: # input molecule: `C=C1CC[C@@]2(OCCC)[C@H]3Cc4ccc(O)c5c4[C@@]2(CCN3CC2CC2)[C@H]1O5` ; wanted: its Tmax
a: ≤ 10 min
